Test system: NCI-H322M multicellular tumor spheroids, viability (% test/control)
ASSAY_PROCEDURE: Anticancer human tumor NCI-H322M cell line growth inhibition;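 further: spheroids exposed to compound for seven days before readout; 100% = DMSO vehicle control wells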
EXPERIMENTAL_CONDITIONS: second compound 0.003 µM; first compound 0.3 µM; active compounds read low
viability, T/C for assorted molecules

MOLECULE	MEASUREMENT_TARGET	UNIT_ABBREV	viability, T/C
Cn1ncnc1[C@H]1c2n[nH]c(=O)c3cc(F)cc(c23)N[C@@H]1c1ccc(F)cc1 + COc1cc2c(cc1O)CCNC21CSC2c3c(OC(C)=O)c(C)c4c(c3C(COC1=O)N1C(O)C3Cc5cc(C)c(OC)c(O)c5C(C21)N3C)OCO4	NCI-H322M multicellular tumor spheroids, viability (% test/control)	%	3.83
O=C(c1cc(Cc2n[nH]c(=O)c3ccccc23)ccc1F)N1CCN(C(=O)C2CC2)CC1 + CC[C@@]1(O)C(=O)OCc2c1cc1n(c2=O)Cc2cc3c(CN(C)C)c(O)ccc3nc2-1	NCI-H322M multicellular tumor spheroids, viability (% test/control)	%	78.8
Cn1ncnc1[C@H]1c2n[nH]c(=O)c3cc(F)cc(c23)N[C@@H]1c1ccc(F)cc1 + CC[C@@]1(O)C(=O)OCc2c1cc1n(c2=O)Cc2cc3c(CN(C)C)c(O)ccc3nc2-1	NCI-H322M multicellular tumor spheroids, viability (% test/control)	%	71.9
O=C(c1cc(Cc2n[nH]c(=O)c3ccccc23)ccc1F)N1CCN(C(=O)C2CC2)CC1 + COc1cc2c(cc1O)CCNC21CSC2c3c(OC(C)=O)c(C)c4c(c3C(COC1=O)N1C(O)C3Cc5cc(C)c(OC)c(O)c5C(C21)N3C)OCO4	NCI-H322M multicellular tumor spheroids, viability (% test/control)	%	14.1
CNCc1ccc(-c2cc(-c3nc(-c4ccc(S(=O)(=O)C(C)C)cc4)cnc3N)on2)cc1 + COc1cc2c(cc1O)CCNC21CSC2c3c(OC(C)=O)c(C)c4c(c3C(COC1=O)N1C(O)C3Cc5cc(C)c(OC)c(O)c5C(C21)N3C)OCO4	NCI-H322M multicellular tumor spheroids, viability (% test/control)	%	9.72
